# assayProcedure: Metabolic stability in human hepatocytes assessed as intrinsic clearance measured per 10^6 viable cells/ml at 1 uM measured upto 120 mins by LC-MS/MS analysis
# Assay type: ADME, cell-based, Hepatocyte
# reportedConditions: read-out: CLH
List of hepatocyte CLint at 1 µM values.
Numeric answer only, unit µL/min/1e6 cells assumed.

Previously resolved entries follow.
> print(dat)
                                 smilesrepr            reportedmetric          unittext  measuredresult
1  COc1cc(F)c(O[C@H]2CC[C@@](C)(c3noc(=O)[nH]3)CC2)cc1C(=O)N[C@@H]1[C@H]2CC[C@H](C2)[C@@H]1C(=O)NCC1(C)CCC1  hepatocyte CLint at 1 µM  µL/min/1e6 cells              12
2  COc1cc(F)c(O[C@H]2CC[C@@](C)(C(=O)O)CC2)cc1C(=O)N[C@@H]1[C@H]2CC[C@H](C2)[C@@H]1C(=O)N[C@H](C)C(C)(C)C  hepatocyte CLint at 1 µM  µL/min/1e6 cells             5.9

Can you look up the measured hepatocyte CLint at 1 µM of COc1cc(C(F)(F)F)c(O[C@H]2CC[C@@](C)(C(=O)O)CC2)cc1C(=O)N[C@@H]1[C@H]2CC[C@H](C2)[C@@H]1C(=O)NCC1(C)CCC1 for me?
3.9

---

# assayProcedure: Metabolic stability in human liver microsomes assessed as intrinsic clearance at 1 uM measured upto 30 mins by LC-MS/MS analysis
# Assay type: ADME, Microsome
# reportedConditions: read-out: CLH
reportedMetric: microsomal CLint at 1 µM
The answer consists of two parts: a number and, after it, its unit.

Previously resolved entries follow.
> print(dat)
                                   molecule            reportedmetric  measuredresult
1  COc1cc(F)c(C[C@H]2CC[C@@](C)(C(=O)O)CC2)cc1C(=O)N[C@@H]1[C@H]2CC[C@H](C2)[C@@H]1C(=O)NCC1(C)CCC1  microsomal CLint at 1 µM    78 µL/min/mg
2  CC1(CNC(=O)[C@H]2C3CCC(C3)[C@H]2NC(=O)c2cc(O[C@H]3CC[C@@](C)(C(=O)O)CC3)c(C#N)cc2F)CCC1 (stereo partly drawn)  microsomal CLint at 1 µM    14 µL/min/mg

Let us examine a further case.
Can you look up the measured microsomal CLint at 1 µM of COCc1cc(OC)c(C(=O)N[C@@H]2[C@H]3CC[C@H](C3)[C@@H]2C(=O)NCC2(C)CCC2)cc1O[C@H]1CC[C@@](C)(C(=O)O)CC1 for me?
11 µL/min/mg

---

# assayProcedure: Metabolic stability in human hepatocytes assessed as unbound intrinsic clearance measured per 10^6 viable cells/ml at 1 uM measured upto 120 mins by LC-MS/MS analysis
# Type: ADME, cell-based, Hepatocyte
# reportedConditions: 2 h
CL free of 9 µL/min or higher: T. Under 9 µL/min: F.

Consider the following illustrative entries.
> print(dat)
                                 smilesrepr  categorylabel
1  CC1(CNC(=O)[C@H]2[C@@H]3CC[C@@H](C3)[C@H]2NC(=O)c2cc(O[C@H]3CC[C@@](C)(C(=O)O)CC3)c(F)cc2F)CCC1              T
2  CC1(CNC(=O)[C@H]2[C@@H]3CC[C@@H](C3)[C@H]2N2CCc3cc(F)c(O[C@H]4CC[C@@](C)(C(=O)O)CC4)cc3C2=O)CCC1              F
3  CC1(CNC(=O)[C@H]2[C@@H]3CC[C@@H](C3)[C@H]2NC(=O)c2cc(O[C@H]3CC[C@@](C)(C(=O)O)CC3)c(F)cc2O)CCC1              T
4  COc1ccc(O[C@H]2CC[C@@](C)(C(=O)O)CC2)cc1C(=O)N[C@@H]1[C@H]2CC[C@H](C2)[C@@H]1C(=O)NCC1(C)CCC1              T

Let us examine a further case.
Quick check: does COc1cc(C(F)(F)F)c(O[C@H]2CC[C@@](C)(C(=O)O)CC2)cc1C(=O)N[C@@H]1[C@H]2CC[C@H](C2)[C@@H]1C(=O)NCC1(C)CCC1 have CL free greater than or equal to 9 µL/min?
T
